Target: β2AR (Homo sapiens)
Sequence (P07550 whole entry): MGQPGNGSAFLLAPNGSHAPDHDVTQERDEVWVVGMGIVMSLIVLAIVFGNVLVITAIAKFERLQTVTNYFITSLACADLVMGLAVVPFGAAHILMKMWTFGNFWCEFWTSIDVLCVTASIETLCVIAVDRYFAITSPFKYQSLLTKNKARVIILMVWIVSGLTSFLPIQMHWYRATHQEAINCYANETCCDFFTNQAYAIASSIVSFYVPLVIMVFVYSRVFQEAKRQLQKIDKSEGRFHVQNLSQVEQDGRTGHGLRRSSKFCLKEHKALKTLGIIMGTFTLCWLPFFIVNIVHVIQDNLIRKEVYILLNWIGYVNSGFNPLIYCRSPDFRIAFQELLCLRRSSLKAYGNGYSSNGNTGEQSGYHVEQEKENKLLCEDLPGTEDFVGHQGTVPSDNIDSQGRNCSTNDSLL
reported.metric: pKi
Give bare numbers, as −log10 of the molar value.

The compound Oc1ccc([C@@H](O)CNCCCCCCOCCCCc2ccccc2)cc1O [LM189] on β2AR (Homo sapiens): pKi was 10.24

* * *

Target: β1AR (Homo sapiens)
Sequence (P08588 whole entry): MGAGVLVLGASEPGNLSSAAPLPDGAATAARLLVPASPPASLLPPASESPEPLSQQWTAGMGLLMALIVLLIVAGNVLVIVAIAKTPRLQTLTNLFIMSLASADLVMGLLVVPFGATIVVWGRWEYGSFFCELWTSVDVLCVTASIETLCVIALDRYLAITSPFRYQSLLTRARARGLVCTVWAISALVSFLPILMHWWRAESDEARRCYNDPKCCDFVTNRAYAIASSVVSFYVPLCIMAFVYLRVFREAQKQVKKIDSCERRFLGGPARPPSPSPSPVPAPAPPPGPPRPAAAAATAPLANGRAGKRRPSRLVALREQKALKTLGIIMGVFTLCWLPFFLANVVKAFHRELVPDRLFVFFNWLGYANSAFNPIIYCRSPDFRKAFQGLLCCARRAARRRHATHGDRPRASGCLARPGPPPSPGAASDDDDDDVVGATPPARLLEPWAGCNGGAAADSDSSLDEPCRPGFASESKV
Experiment: β-Arrestin-2 recruitment (PathHunter assay)
Details: HEK293T cells, 90 min; mean ± S.E.M.
reported.metric: EC50 (nM)
Answers are plain numbers, in nM.

Looking up `Oc1ccc([C@@H](O)CNCCCCCCOCCCCc2ccccc2)cc1O` , I found its EC50 recorded as 1300
